Can you tell me melting point for the items I'm about to list?

Below: 8 molecules and their reported melting point.
>>> result("CC(C)(C)c1cc(-c2ccc[nH]c2=O)cc2c(-c3cnc(N)nc3)coc12")
"> 300 °C"
>>> result("Cn1cc(C(=O)N2CC[C@H](CNS(C)(=O)=O)C2)c2cc(-c3ccc[nH]c3=O)cc(C(C)(C)C)c21")
"168 to 170 °C"
>>> result("CCS(=O)(=O)NC[C@H]1CCN(C(=O)c2coc3c(C(C)(C)C)cc(-c4ccc[nH]c4=O)cc23)C1")
"240 to 242 °C"
>>> result("COc1cccc(-c2coc3c(C(C)(C)C)cc(-c4ccc[nH]c4=O)cc23)c1")
"204 to 205 °C"
>>> result("CN(CC1CCCN(C(=O)c2coc3c(C(C)(C)C)cc(-c4ccc[nH]c4=O)cc23)C1)S(C)(=O)=O (stereo not drawn)")
"155 to 157 °C"
>>> result("CC(C)(C)c1cc(-c2ccc[nH]c2=O)cc2c(-c3ccc(N)cc3)coc12")
"248 to 250 °C"
>>> result("CC(C)(C)c1cc(-c2ccc[nH]c2=O)cc2c(C(=O)Nc3nccs3)coc12")
"> 300 °C"
>>> result("CC(C)(C)c1cc(-c2ccc[nH]c2=O)cc2c(-c3ccc(N)nc3)coc12")
"255 to 257 °C"

Give melting point for each listed item.
1. CC(C)(C)c1cc(-c2ccc[nH]c2=O)cc2c(-c3ccc(C(N)=O)cc3)coc12
2. CC(C)(C)c1cc(-c2ccc[nH]c2=O)cc2c(-c3cccc(C(N)=O)c3)coc12
3. CC(C)(C)c1cc(-c2cc(F)c[nH]c2=O)cc2c(C(=O)N3CC[C@H](CNS(C)(=O)=O)C3)coc12
4. CC(C)(C)c1cc(-c2ccc[nH]c2=O)cc2c(C(=O)Nc3cccc(CNS(C)(=O)=O)c3)coc12
5. CC(C)(C)c1cc(-c2ccc[nH]c2=O)cc2c(C(=O)N3CC[C@H](CNS(=O)(=O)C4CC4)C3)coc12
6. CC(C)(C)c1cc(-c2ccc[nH]c2=O)cc2c(-c3ccc(CNS(C)(=O)=O)cc3)coc12
7. CC(C)(C)c1cc(-c2ccc[nH]c2=O)cc2ccoc12
8. CC(NS(C)(=O)=O)c1ccc(-c2coc3c(C(C)(C)C)cc(-c4ccc[nH]c4=O)cc23)cc1 (stereo not drawn)

282 to 284 °C
190 to 193 °C
296 to 298 °C
237 to 239 °C
158 to 160 °C
271 to 273 °C
217 to 218 °C
255 to 257 °C

Give melting point for each listed item.
1. CC(C)(C)c1cc(-c2ccc[nH]c2=O)cc2c(-c3ccc(CN(CCO)S(C)(=O)=O)cc3)coc12
2. CC(C)S(=O)(=O)NC[C@H]1CCN(C(=O)c2coc3c(C(C)(C)C)cc(-c4ccc[nH]c4=O)cc23)C1
3. CC(C)(C)c1cc(-c2ccc[nH]c2=O)cc2c(CC(=O)O)coc12
4. CC(C)(C)c1cc(-c2ccc[nH]c2=O)cc2c(C(=O)N3CC[C@H](CNS(C)(=O)=O)C3)coc12

["222 to 224 °C", "163 to 165 °C", "233 to 234 °C", "258 to 260 °C"]

Give melting point for each listed item.
1. CN(Cc1ccc(-c2coc3c(C(C)(C)C)cc(-c4ccc[nH]c4=O)cc23)cc1)S(C)(=O)=O
2. Cc1ccc(-c2cc(C(C)(C)C)c3occ(C(=O)N4CC[C@H](CNS(C)(=O)=O)C4)c3c2)c(=O)[nH]1
3. CC(C)(C)c1cc(-c2ccc[nH]c2=O)cc2c(C(=O)N3CCCC(CN)C3)coc12 (stereo not drawn)

["243 to 245 °C", "178 to 180 °C", "150 to 155 °C"]
